Origin of the recorded values: ChEMBL document CHEMBL4813957

Reported inhibition of growth at 12.5 µg/mL by item:
Tested on: Mycobacterium tuberculosis
Test: Antimycobacterial activity against Mycobacterium tuberculosis H37Rv assessed as growth inhibition at 12.5 ug/ml by BACTEC radiometric method relative to control
Assay type: functional
Conditions: read-out: GI
I only need the number, in %, no unit after it.

Use the examples below as a reference point.
Cc1ccc(N2C(=O)CSC23C(=O)Nc2ccc(C)cc23)cc1 (centres undefined) ... 90
Cc1ccc(N2C(=O)CSC23C(=O)N(CN2CCOCC2)c2ccc(C)cc23)cc1 (centres undefined) ... 90
O=C(O)c1ccc(N2C(=O)CSC23C(=O)Nc2ccc(F)cc23)cc1O (centres undefined) ... 98

[ask] Tell me measured inhibition of growth at 12.5 µg/mL for Cc1cc(C)c2c(c1)C1(SCC(=O)N1c1ccccc1C(=O)O)C(=O)N2 (centres undefined) please.
[reply] 90

---

Experiment: Cytotoxicity against African green monkey Vero cells after 72 hrs by cell titer glo luminescent cell viability assay
Format: cell-based
Settings: chlorocebus sabaeus
Assay Endpoint: CC50 at 72 h (µg/mL)
Give just the numeric value; µg/mL need not be written.

Study these solved cases before continuing.
CN1C(=O)/C(=C/c2ccccc2F)S/C1=N/NC(=O)c1ccncc1 ... 15.5
CCN1C(=O)/C(=C/c2ccc(OC)cc2)S/C1=N/NC(=O)c1ccncc1 ... 36.9
CCN1C(=O)/C(=C/c2ccc(F)cc2)S/C1=N/NC(=O)c1ccncc1 ... 9.69

Turning now to a further record.
[ask] Identify the reported CC50 at 72 h for the following entry. CCN1C(=O)/C(=C/c2ccccc2F)S/C1=N/NC(=O)c1ccncc1
[reply] 22.8

---

Test system: Mycobacterium tuberculosis
Assay: Antimycobacterial activity against Mycobacterium tuberculosis H37Rv ATCC 27294 incubated for 5 days by microplate alamar blue assay
Format: functional
Conditions: H37Rv ATCC 27294, 120 h, time 5 day
Below, each entry is listed with its recorded MIC.
Just the number in µg/mL, nothing appended.

Here is how some molecules turned out for MIC.
O=C(NN1C(=O)CSC1c1ccc([N+](=O)[O-])cc1)c1ccncc1 (stereo not drawn) ... 3.12
O=C(NN1C(=O)CSC1c1ccccc1O)c1ccncc1 (stereo not drawn) ... 0.62
NNC(=O)c1ccncc1 [ISONIAZID] ... 0.2

[ask] Return MIC for the following molecule: COc1ccc(C2SCC(=O)N2NC(=O)c2ccncc2)cc1 (stereo not drawn)
[reply] 1.25

[ask] In one line, give reported MIC of the entry CN(C)c1ccc(C2SCC(=O)N2NC(=O)c2ccncc2)cc1 (stereo not drawn) .
[reply] 5

[ask] Give the measured MIC for COc1cc(C2SCC(=O)N2NC(=O)c2ccncc2)ccc1O (stereo not drawn)
[reply] 0.31

[ask] Name the recorded MIC of the molecule listed here: CO[C@H]1/C=C/O[C@@]2(C)Oc3c(C)c(O)c4c(O)c(c(/C=N/N5CCN(C)CC5)c(O)c4c3C2=O)NC(=O)/C(C)=C\C=C\[C@H](C)[C@H](O)[C@@H](C)[C@@H](O)[C@@H](C)[C@H](OC(C)=O)[C@@H]1C [RIFAMPIN]
[reply] 1

[ask] Provide measured MIC value, entry: O=C(NN1C(=O)CSC1c1ccco1)c1ccncc1 (stereo not drawn)
[reply] 1.25

---

Experiment: Selectivity ratio of CC50 for African green monkey Vero E6 cells to IC90 for Mycobacterium tuberculosis H37Rv 27294
Assay type: toxicity, Vero C1008
Assay Endpoint: selectivity ratio
// print number alone

[ask] Dear colleague, please send me the reported selectivity ratio for CCN1C(=O)/C(=C/c2ccc(OC)cc2)S/C1=N/NC(=O)c1ccncc1 when you can.
[reply] 18.1
